- target_system: MAPK14 (UniProt Q16539)
- Sequence (Q16539 whole entry, looked up): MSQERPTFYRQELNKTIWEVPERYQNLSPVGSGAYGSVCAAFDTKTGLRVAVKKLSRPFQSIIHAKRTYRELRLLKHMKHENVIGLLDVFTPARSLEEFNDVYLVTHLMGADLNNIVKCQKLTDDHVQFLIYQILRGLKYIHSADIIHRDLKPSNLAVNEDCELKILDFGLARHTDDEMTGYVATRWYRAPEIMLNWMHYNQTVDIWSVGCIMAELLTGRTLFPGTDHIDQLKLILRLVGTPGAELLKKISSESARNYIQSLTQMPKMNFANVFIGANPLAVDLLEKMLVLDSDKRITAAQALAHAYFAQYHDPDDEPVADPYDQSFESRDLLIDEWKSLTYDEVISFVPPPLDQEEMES
- measurement_notes: p38 alpha Kinase Inhibition Assay
readout_kind: IC50 (µM)

molecule: O=C(c1ccc2nc[nH]c2c1)N1C2CCC1CC(Cc1ccccc1)C2 (configuration not stated)
target_system: MAPK14 (UniProt Q16539)
readout_units: µM
experimental_result: 2.15

* * *

# IC50 annotations
- target_system: EGFR (UniProt P00533)
- Sequence (P00533 whole entry, looked up): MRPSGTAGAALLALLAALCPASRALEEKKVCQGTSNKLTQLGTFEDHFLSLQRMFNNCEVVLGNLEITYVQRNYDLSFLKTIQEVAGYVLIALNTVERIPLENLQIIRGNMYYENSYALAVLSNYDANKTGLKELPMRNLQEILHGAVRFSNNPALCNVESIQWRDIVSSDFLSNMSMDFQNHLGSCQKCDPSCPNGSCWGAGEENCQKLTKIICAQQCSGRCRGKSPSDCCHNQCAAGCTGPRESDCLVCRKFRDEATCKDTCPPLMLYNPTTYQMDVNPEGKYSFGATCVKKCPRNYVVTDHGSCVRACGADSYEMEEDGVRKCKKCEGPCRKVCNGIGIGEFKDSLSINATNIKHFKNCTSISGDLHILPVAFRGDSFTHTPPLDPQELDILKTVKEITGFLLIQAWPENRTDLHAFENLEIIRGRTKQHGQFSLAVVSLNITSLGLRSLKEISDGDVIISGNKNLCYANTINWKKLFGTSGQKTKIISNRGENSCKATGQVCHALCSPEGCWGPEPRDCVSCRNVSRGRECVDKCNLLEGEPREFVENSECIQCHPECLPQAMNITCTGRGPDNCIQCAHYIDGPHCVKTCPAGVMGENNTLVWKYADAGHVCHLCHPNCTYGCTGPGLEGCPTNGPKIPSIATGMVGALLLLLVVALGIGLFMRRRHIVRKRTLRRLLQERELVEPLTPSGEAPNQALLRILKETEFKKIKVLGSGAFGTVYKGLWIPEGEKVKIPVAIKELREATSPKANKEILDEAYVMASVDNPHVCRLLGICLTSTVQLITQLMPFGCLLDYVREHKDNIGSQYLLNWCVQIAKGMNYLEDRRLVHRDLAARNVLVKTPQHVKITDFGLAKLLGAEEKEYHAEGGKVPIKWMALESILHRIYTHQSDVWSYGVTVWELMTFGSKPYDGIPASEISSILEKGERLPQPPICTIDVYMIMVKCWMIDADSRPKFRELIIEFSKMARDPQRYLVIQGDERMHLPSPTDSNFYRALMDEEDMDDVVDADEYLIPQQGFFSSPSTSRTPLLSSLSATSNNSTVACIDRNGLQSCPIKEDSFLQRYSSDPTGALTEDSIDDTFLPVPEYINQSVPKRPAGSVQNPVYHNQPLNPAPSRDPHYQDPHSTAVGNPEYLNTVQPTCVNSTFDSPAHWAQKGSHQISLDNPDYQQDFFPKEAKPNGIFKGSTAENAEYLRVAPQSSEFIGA

sample_smiles: O=C(c1ccc2[nH]ccc2c1)N1CCC(Cc2ccccc2)CC1
IC50: > 500 µM

sample_smiles: O=C(c1ccc2cc[nH]c2c1)N1CCC(Cc2ccccc2)CC1
IC50: > 500 µM
